B1: EPB41L3 (parent)
chain: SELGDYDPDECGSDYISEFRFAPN

Variants of: B1
Experiment: protein stability index of a GFP-peptide fusion (GPS, HEK-293T) (PSI 1-6); higher = more stable;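 further: lentivirally expressed fusions sorted by FACS into six bins by GFP to DsRed ratio, PSI derived from sequencing read proportions per bin multiplied by bin number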
Details: c terminus: a fixed tail appended
measurement label: protein stability index

Here's what some known entries look like.
[[record]]
residue_change = "F19E"
measurement_label = "protein stability index"
observed = 5.42

[[record]]
residue_change = "I16R"
measurement_label = "protein stability index"
observed = 3.47

[[record]]
residue_change = "D14Y"
measurement_label = "protein stability index"
observed = 2.11

[[record]]
residue_change = "Y15C"
measurement_label = "protein stability index"
observed = 2.84

[[record]]
residue_change = "D9F"
measurement_label = "protein stability index"
observed = 1.95


# batch size: 6; output protein stability index per entry
1. R20Y
2. G4D
3. D5L
4. L3T
5. D14F
6. F19T

Completion:
[3.75, 2.35, 1.92, 2.2, 2.43, 4.97]

# batch size: 6; output protein stability index per entry
1. Y6K
2. A22D
3. L3D
4. N24Q
5. E10S
6. I16M

Completion:
1: 2.17; 2: 4.92; 3: 2.66; 4: 2.09; 5: 1.85; 6: 2.24

# batch size: 5; output protein stability index per entry
1. Y15D
2. E10H
3. E10A
4. R20I
5. P23Y

Completion:
1. 4.23
2. 1.5
3. 1.88
4. 3.75
5. 2.89
